Origin of the recorded values: paper PMC2193167

target: HLA-A*0201 (Homo sapiens, UniProt P04439, D140Y/D185E/D98H/E176V/E277Q/G131W/G231S/I119V/I121R/I166T/I218V/L300P/L318F/N151K/N90K/P208A/P217A/Q86G/Q94H/R138H/R169H/T345S); assay: Class I peptide binding affinity assay
No end group written: not given here.
quantityMeasured: IC50 (nM)
Answers are plain numbers, in nM.

State the recorded IC50 for this entry: FMDGTMSQV [FMDGTMSQV]
65
